assay: growth modulation of vineyard yeast isolate – strain RM11-1a, OD600, basal, 24 h, primary screen (AID 1177);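 note: cultures grown under basal conditions with no added stressor; test concentration not given here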; settings: S. cerevisiae RM11-1a growth, OD600, 24 h; higher = more signal, called active from +8 up or from −8 down
Note to self: class labels come from recorded z-score, ranges listed here: low bin = under -0.2, mid bin = from -0.2 up to 0.8, high bin = 0.8 and over

# Molecule, Class label
measured = [
    ("COC(=O)C/C=C/C[C@]1(O)C(=O)N(C)c2ccccc21", "low bin"),
    ("COC(=O)[C@@]1(Cc2ccc(OC)cc2)[C@H]2c3cc(C(=O)N4CCCC4)n(CCc4c[nH]c5ccc(O)cc45)c3C[C@H]2CN1C(=O)c1ccccc1", "mid bin"),
    ("COc1ccc(CCNC(=O)[C@@]2(c3ccc([N+](=O)[O-])cc3)CC(=O)N(C3CCCCC3)[C@@H]2c2ccc(CO)cc2)cc1", "high bin"),
    ("CCOC(=O)C[C@H]1[C@H](OC(=O)Cc2ccc3c(c2)OCO3)[C@@H](NC(=O)C2CCCCC2)c2cc(OCCCO)ccc2N1C(=O)c1ccccc1", "mid bin"),
    ("COc1ccc([Si](C)(C)[C@@H]2[C@@H](CC(=O)N3Cc4ccccc4C[C@H]3CO)O[C@]3(C(=O)N(Cc4ccc(N5C(=O)c6cccc7cccc5c67)cc4)c4ccccc43)[C@H]2C)cc1", "high bin"),
    ("[N-]=[N+]=Nc1ccccc1[C@@H]1OC(c2ccc(OCCCO)cc2)=N[C@]1(Cc1ccccc1)C(=O)O", "high bin"),
    ("Cc1ccc(F)cc1S(=O)(=O)N[C@@H]1CCN(Cc2ccc(Br)cc2)C1", "mid bin"),
    ("CC(C)(C)OC(=O)CC[C@@]1(C(=O)NCC(O)CO)N=C(c2ccc(OCCCO)cc2)O[C@@H]1c1ccccc1CN=[N+]=[N-] (some centres undefined)", "mid bin"),
    ("Cc1ccc(S[C@]2(C(=O)NCC(F)(F)F)CC(=O)N(Cc3cc(C(F)(F)F)cc(C(F)(F)F)c3)[C@@H]2c2ccc(CO)cc2I)cc1", "low bin"),
    ("CC(C)c1ccc(NN2C(C(O)c3ccc(C#N)cc3)C=CC3C(=O)N(c4ccccc4)C(=O)C32)cc1 (centres undefined)", "high bin"),
    ("C=CC[C@@]1(C(=O)NCCCOC)N=C(c2ccc(OCCCO)cc2)O[C@@H]1c1ccccc1", "low bin"),
    ("CN(C)CCCCCCNC(=O)[C@@H]1C[C@@H]2C(=O)N3CCC[C@H]3C(=O)N2[C@@H]1c1cccc(OCCO)c1", "mid bin"),
    ("CCCC=C(CCC)[C@@H](NS(=O)(=O)CC12CCC(CC1=O)C2(C)C)c1ccc(C(=O)OC)cc1 (some centres undefined)", "low bin"),
    ("COCCOC(=O)N1C(=O)[C@@]2(c3cc(C#CC4=CCCCC4)ccc31)[C@H](c1ccccc1OCCO)N1[C@H](c3ccccc3)[C@H](c3ccccc3)OC(=O)[C@H]1[C@@H]2C(=O)N1CCN(c2ncccn2)CC1", "mid bin"),
]
